- experimental_target: BACE1 endogenous to primary cortical neurons from E16.5 CD1 mice (mouse, UniProt P56818 46-501)
- Sequence (P56818 46-501): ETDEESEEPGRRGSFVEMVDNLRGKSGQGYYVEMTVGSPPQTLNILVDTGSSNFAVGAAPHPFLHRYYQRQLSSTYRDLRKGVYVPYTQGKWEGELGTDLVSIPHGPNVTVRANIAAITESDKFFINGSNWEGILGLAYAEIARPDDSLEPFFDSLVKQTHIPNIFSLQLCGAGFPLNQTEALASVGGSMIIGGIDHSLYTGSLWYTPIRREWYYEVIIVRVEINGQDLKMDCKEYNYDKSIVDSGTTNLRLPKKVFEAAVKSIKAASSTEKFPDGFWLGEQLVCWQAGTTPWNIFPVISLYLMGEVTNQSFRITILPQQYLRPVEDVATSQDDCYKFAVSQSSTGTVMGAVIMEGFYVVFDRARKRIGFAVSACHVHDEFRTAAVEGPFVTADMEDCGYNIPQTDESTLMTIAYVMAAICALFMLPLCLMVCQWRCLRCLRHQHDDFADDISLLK
- procedure_summary: cell-based or functional assay
quantity_measured: max % inhibition, Abeta x-40 in mouse cortical neurons (%)
Provide the reading as a plain figure in %.

{"binder": "6270 (antibody, V domains shown) VH: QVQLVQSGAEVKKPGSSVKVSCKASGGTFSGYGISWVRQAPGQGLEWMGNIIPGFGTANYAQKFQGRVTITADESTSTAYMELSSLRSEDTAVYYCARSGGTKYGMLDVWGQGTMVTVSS VL: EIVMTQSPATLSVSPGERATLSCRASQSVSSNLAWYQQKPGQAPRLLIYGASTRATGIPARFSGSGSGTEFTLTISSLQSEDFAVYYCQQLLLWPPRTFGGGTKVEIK", "recorded_value": 85}

Okay, now this binder:
(Q) Give a short answer stating reported max % inhibition, Abeta x-40 in mouse cortical neurons for 6289 (antibody, V domains shown) VH: QLQLQESGPGLVKPSETLSLTCTVSGGSISSSSYYWGWIRQPPGKGLEWIGSIYRSGSTYYNPSLRSRVTISVDTSKNQFSLKLSSVTAADTAVYYCVRVGHGISYFDLWGRGTLVTVSS VL: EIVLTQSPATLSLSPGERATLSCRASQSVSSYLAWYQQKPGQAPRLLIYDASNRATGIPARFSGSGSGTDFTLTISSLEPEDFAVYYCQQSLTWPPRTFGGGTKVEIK .
(A) 74

Data credit: patent US20210206877A1
